Assay: Plasma concentrations of quercetin and isorhamnetin in mice after oral EMIQ (HPLC)
Assay type: in vivo
Conditions: male, ICR, mouse, plasma, oral, 90 min after oral EMIQ 1000 mg/kg body weight, HPLC without deconjugation, read-out: Concentration in plasma, Aglycone form
Procedure: All animal experiments were performed according to the guidelines for animal experiments at Kobe University Animal Experimentation Regulation and approved by the Institutional Animal Care and Use Committed of Kobe University (Permission 29-05-02). […] To determine the levels of quercetin and isorhamnetin after administration of EMIQ, the obtained plasma were analyzed using HPLC (UV 370 nm) with or without deconjugation treatment using glucuronidase/sulfatase[16]. […]
Endpoint label: concentration at 90 min (nM)

Molecule: O=c1c(O)c(-c2ccc(O)c(O)c2)oc2cc(O)cc(O)c12 [quercetin, 3,3′,4′,5,7-pentahydroxy flavone]
Endpoint label: concentration at 90 min
Units text: nM
Data value: 138

---

test: Plasma concentrations of quercetin and isorhamnetin in mice after oral EMIQ (HPLC); format: in vivo; conditions: male, ICR, mouse, plasma, oral, 90 min after oral EMIQ 10 mg/kg body weight, HPLC without deconjugation, read-out: Concentration in plasma, Aglycone form

Compound: O=c1c(O)c(-c2ccc(O)c(O)c2)oc2cc(O)cc(O)c12 [quercetin, 3,3′,4′,5,7-pentahydroxy flavone]
concentration at 90 min, nM: 4.95
